System: OVCAR-8 ovarian
Assay: NCI tumour cell line growth inhibition, 48 h
The entries below are paired with their reported GI50.

smilesrepr=O=C(c1ccc2ccccc2c1)c1c(C(F)(F)F)n([O-])c2ccc(C(F)(F)F)cc2[n+]1=O studysystem="OVCAR-8 ovarian" propertymeasured=GI50 val="727 nM"
smilesrepr=Nc1ncn([C@@H]2S[C@H](CO)[C@@H](O)[C@@H]2F)c(=O)n1 studysystem="OVCAR-8 ovarian" propertymeasured=GI50 val="409 nM"
smilesrepr=N#C[Se]Cc1cc(-c2ccccc2)n(-c2ccc(S(N)(=O)=O)cc2)n1 studysystem="OVCAR-8 ovarian" propertymeasured=GI50 val="1350 nM"

Here's the next entry for you.
Under OVCAR-8 ovarian: report GI50 of COc1ccc2c(c1)C(=O)/C(=C/c1cccc(OCC(=O)c3ccccc3)c1)CC2 .
44100 nM

* * *

Tested on: HCC-2998 colon
Experiment: NCI tumour cell line growth inhibition, 48 h; in the data active means GI50 below about 0.43 µM; inactive means the rest
Select the correct class. Options are true (1) (active), false (0) (inactive) and nothing else.

Examples with answers:
molecule=CCc1c2c(nc3ccc(OCc4ccc(B(O)O)cc4)cc13)-c1cc3c(c(=O)n1C2)COC(=O)[C@]3(O)CC categorylabel="true (1)"
molecule=O=C1/C(=C/c2ccc([N+](=O)[O-])cc2)CN(C(=O)CCN2CCC(=NO)CC2)C/C1=C\c1ccc([N+](=O)[O-])cc1 categorylabel="false (0)"
molecule=CCCCN(CCCC)Cc1cc(Nc2ccnc3cc(Cl)ccc23)ccc1O categorylabel="false (0)"

Please examine the following record next.
Query: recorded result category for CO/N=C(\COc1ccc2c(c1)[nH]c1ccccc12)c1ccc(OC)cc1 in this test
false (0)

* * *

System: UO-31 renal
Select the correct class. Options are active, inactive and nothing else.

Examples with answers:
compound="C=C1CCC2C3(C)COC(C)(C)OC3CCC2(C)C1C/C=C1/C(=O)OCC1OC(C)=O (centres undefined)" categorylabel=inactive
compound=O=S(=O)(Nc1ccc(Br)cc1)c1ccc(-c2cnc(C3CC3)o2)cc1 categorylabel=inactive
compound=O=C(NCC1CC1)c1ccc(-c2cccc(C(=O)NC3CC3)c2)cc1 categorylabel=inactive
compound=CCc1c2c(nc3ccc(OCc4ccc(B(O)O)cc4)cc13)-c1cc3c(c(=O)n1C2)COC(=O)[C@]3(O)CC categorylabel=active
compound="CCSC1=NC2C(N(CC)C(=O)N2CC)N1/N=C/C=C/c1ccccc1[N+](=O)[O-] (centres undefined)" categorylabel=inactive
compound="CC1=C([Se]CC(OC(=O)CC[Se]c2ccccc2)C(=O)NC(C)(C)C)C(=O)c2ccccc2C1=O (centres undefined)" categorylabel=inactive
compound=CCOC(=O)Oc1c(OC)cc(C(=O)c2ccc(OC)c(O)c2OC)cc1OC categorylabel=inactive
compound="CC1CC(C)CC(C)C(O)/C(C#N)=C/C=C/CC(C2CCCC2C(=O)O)OC(=O)CC(O)C(C)C1 (centres undefined)" categorylabel=active

Please examine the following record next.
Query: recorded result category for O=C(Nc1cccc(Cl)c1)Nn1cnnc1 in this test
inactive

* * *

Tested on: ACHN renal
Assay: NCI tumour cell line growth inhibition, 48 h
The entries below are paired with their reported TGI.

# example entries with known answers
compound=c1ccc(NN(Cc2cnccn2)c2ccccc2)cc1 val="> 100 µM"
compound=C1CSCCCSCCCSCCCSCCCSCCCSCCCSCCCSC1 val="> 100 µM"
compound=Cc1cc(C)nc(NS(=O)(=O)c2ccc(NC(=O)c3c4ccccc4nc4ccccc34)cc2)n1 val="> 100 µM"

Annotate the compound CN(C)c1cc2ccccc2oc1=O with its measured TGI.
> 100 µM

Annotate the compound CC1CC[C@@]2(OC1)OC1C[C@H]3[C@@H]4CC=C5CC(OC6OC(CO)C(OC7OC(CO)C(O)C(OC8OCC(O)C(O)C8O)C7OC7OC(CO)C(OC8OC(C)C(OC9OC(C)C(O)C(O)C9O)C(O)C8O)C(O)C7O)C(O)C6O)CCC5(C)[C@H]4CCC3(C)C1[C@@H]2C (some centres undefined) with its measured TGI.
9.92 µM

Annotate the compound O=C(N/N=C/c1ccccc1O)N/N=C/c1ccccc1O with its measured TGI.
> 100 µM

Annotate the compound CC(C)/C(Cl)=N/OC(=O)Nc1ccc(Br)cc1 with its measured TGI.
3.77 µM

Annotate the compound CC(=O)c1c(-c2cccc3ccccc23)c(C#N)c(=S)n(C2OC(CO)C(O)C(O)C2O)c1C (centres undefined) with its measured TGI.
> 100 µM

Annotate the compound CNC(C)(C)Cc1ccc(Cl)cc1 with its measured TGI.
> 100 µM
